Sourced from patent US20230146675A1

# ASSAYED_TARGET: human ENT1 (Homo sapiens, UniProt Q99808)
# Sequence (Q99808 whole entry): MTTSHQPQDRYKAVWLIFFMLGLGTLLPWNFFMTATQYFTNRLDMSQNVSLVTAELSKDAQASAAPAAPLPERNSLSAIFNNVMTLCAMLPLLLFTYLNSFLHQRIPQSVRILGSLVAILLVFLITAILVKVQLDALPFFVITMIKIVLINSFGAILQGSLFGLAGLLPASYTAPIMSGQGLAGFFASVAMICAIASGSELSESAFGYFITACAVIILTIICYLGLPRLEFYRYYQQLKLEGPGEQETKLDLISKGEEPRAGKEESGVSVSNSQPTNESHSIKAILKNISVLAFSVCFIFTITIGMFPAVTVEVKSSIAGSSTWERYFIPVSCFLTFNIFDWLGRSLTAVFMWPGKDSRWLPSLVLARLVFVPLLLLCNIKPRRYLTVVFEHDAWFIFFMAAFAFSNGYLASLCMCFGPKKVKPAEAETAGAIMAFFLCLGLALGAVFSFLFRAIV
# EXPERIMENT_SUMMARY: ENT1 binding assay (competition with Sahenta-DY647 on JAR cells)
# Parameters: JAR cells expressing ENT1 were bought from ATCC; host or cells: JAR cells
# STATED_CONDITIONS: binned IC50
# Procedure: Purpose. […] By measuring the fluorescence at the end of the assay we could assess the binding potency of the compounds of the present invention. JAR cells were resuspended in the described buffer. Compounds of the present invention and Sahenta-DY647 were diluted 200× in the described buffer. The total volume of the reaction was 100 μL (50 μL of cells, 25 μL of the compounds of the present invention and 25 μL of Sahenta-DY647) in a 96 well plate, U-bottom (Greiner®, #650-180). […]
QUANTITY_KIND: IC50

* COCCN(CCOC)c1nc(N2CCOC(C)C2)c2nc(N(CCOC)CCOC)nc(N3CCC(OC)CC3)c2n1 (centres unmarked) [Compound 87] | 100 to 500 nM
* COCCN(CCOC)c1nc(N2CCC(OC)CC2)c2nc(N(CCOC)CCOC)nc(NCCCc3ccccn3)c2n1 | 500 to 1000 nM
* COCCN(CCOC)c1nc(N2CCC(OC)CC2)c2nc(N(CCOC)CCOC)nc(NCc3cccc(Cl)c3)c2n1 | < 100 nM
* COCCN(CCOC)c1nc(N2CCC(OC)CC2)c2nc(N(CCOC)CCOC)nc(OCc3cccc(OC)c3)c2n1 | < 100 nM
* COCCN(CCOC)c1nc(N2CCc3oc(C)nc3C2)c2nc(N(CCOC)Cc3ccc(C(=O)O)cc3)nc(N3CCN(C)C(=O)C3)c2n1 | < 100 nM
* COCCN(CCOC)c1nc(N2CCN(c3ncn(C)n3)CC2)c2nc(N(CCOC)CCOC)nc(NCc3cccc(C(N)=O)c3)c2n1 | 100 to 500 nM
* COCCN(CCOC)c1nc(N2CCN(c3cnccn3)CC2)c2nc(N(CCOC)CCOC)nc(N3CCC(OC)CC3)c2n1 | 500 to 1000 nM
* COCCN(CCOC)c1nc(N2CCC(OC)CC2)c2nc(N(CCOC)CCOC)nc(N(C)CCc3ccccn3)c2n1 | 500 to 1000 nM
* COCCN(CCOC)c1nc(N2CCC(OC)CC2)c2nc(N(CCOC)CCOC)nc(NCc3cscn3)c2n1 | 500 to 1000 nM
* COCCN(CCOC)c1nc(N2CCN(C)C(=O)C2)c2nc(N3CCn4nncc4C3)nc(N3CCC(OC)CC3)c2n1 | 100 to 500 nM
* COCCN(CCOC)c1nc(N2CCN(c3ncn(C)n3)CC2)c2nc(N(CCOC)CCOC)nc(N(C)Cc3cccc(OC)c3)c2n1 | < 100 nM
* COCCN(CCOC)c1nc(N2CCC(OC)CC2)c2nc(N(CCOC)CCOC)nc(NCc3ccc(Cl)c(Cl)c3)c2n1 | < 100 nM
* COCCN(CCOC)c1nc(N2CCN(C)C(=O)C2)c2nc(N(CCOC)CCOC)nc(N(C)Cc3cccc(OC)c3)c2n1 | < 100 nM
* COCCN(CCOC)c1nc(N2CCC(OC)CC2)c2nc(N(CCOC)CCOC)nc(NCCCn3ccnc3)c2n1 | 500 to 1000 nM
